tested on: HEK293; assay: Inhibition of wild-type human SLACK expressed in HEK293 cells assessed as efficacy at 30 uM by thallium flux assay relative to control; assay type: cell-based
Calls of active or inactive are those of the source. The rule behind the calls is not given here.
measuredAttribute: Efficacy

Here is how some compounds turned out for Efficacy.
>>> print(df.to_string())
                             chemicalsmiles  measuredattribute  valueobserved
0  CCOc1ccccc1S(=O)(=O)N1CC(c2nc(-c3ccc(F)s3)no2)C1           Efficacy           105%
1  CC(C)Oc1ccccc1S(=O)(=O)N1CC(c2nc(-c3ccsc3)no2)C1           Efficacy           103%
2  CCOc1ccccc1S(=O)(=O)N1CCC(c2nc(-c3ccc(F)cc3)no2)CC1           Efficacy           105%
3  CCOc1ccccc1S(=O)(=O)N1CC(c2nc(-c3cccs3)no2)C1           Efficacy            99%
4  O=S(=O)(c1cccc2cccnc12)N1CC(c2nc(-c3ccc(F)cc3)no2)C1           Efficacy            98%

Ask: Hi! What's the reported Efficacy for "CCOc1ccccc1S(=O)(=O)[C@H]1C[C@@H](c2nc(-c3ccc(F)cc3)no2)C1" on HEK293?
Result: inactive

Ask: Form field - read-out: Efficacy; system: HEK293; submitted item: "CCOc1ccccc1S(=O)(=O)c1ccc(-c2nc(-c3ccc(F)cc3)no2)cc1"
Result: inactive

Measured values drawn from ChEMBL document CHEMBL5390224 for this set.
